assay notes: Inhibition of alpha-mannosidase
pIC50: −log10 of the molar value.
observation type: pIC50

INSERT INTO results (compound, result_number) VALUES
  ('OC[C@@H]1CC2NCC1(O)C(O)C2O (some centres not stated)', 2.02),
  ('OC[C@@H]1CC2C(O)C(O)C1(O)CN2Cc1ccccc1 (some centres not stated)', 1.70);
